test: Determination of log P values by HPLC on reversed-phase column (formic acid method); format: physicochemical; conditions: reversed-phase HPLC column (C 18), pH 3.4, HPLC, reversed-phase C 18, acidic range (pH 3.4), formic acid eluents, 55° C.; read-out: logP (HCOOH)
Endpoint Label: chromatographic logP
A bare number is all that is needed in reply.

Solved entries:
* Cc1nc(CN(C)C(=O)c2cnc(-c3cccnc3)s2)c(C)o1 | 1.44
* Cc1nc(-c2cccnc2)sc1C(=O)NCC1COCCO1 (centres unmarked) | 0.8
* Cc1nc(-c2cncnc2)sc1C(=O)NCc1ncccn1 | 1.05
* Cn1nc(-c2cccnc2)cc1C(=O)NCC(C)(F)F | 0.91
* Cc1nc(-c2cccnc2)sc1C(=O)NC(C)C1CCCO1 (centres unmarked) | 1.5
* Cc1nc(-c2cccnc2)sc1C(=O)NCC1CCCO1 (centres unmarked) | 1.4
* CSC[C@H](C)NC(=O)c1cnc(-c2cccnc2)s1 | 1.53
* CSC[C@H](C)NC(=O)c1sc(-c2cccnc2)nc1C | 1.68

Now consider a different compound.
May I ask what chromatographic logP has been recorded for Cc1nc(-c2cccnc2)sc1C(=O)NC1CCC(C(F)(F)F)CC1 (centres unmarked) ?
2.42

----------
assay: Determination of log P values by HPLC on reversed-phase column (formic acid method); assay type: physicochemical; details: reversed-phase HPLC column (C 18), pH 3.4, HPLC, reversed-phase C 18, acidic range (pH 3.4), formic acid eluents, 55° C.; read-out: logP (HCOOH)
Reported chromatographic logP is given for each of the following compounds.
A bare number is all that is needed in reply.

- Cc1nc(-c2cccnc2)sc1C(=O)N(CC#N)C(=O)C1(F)CC1: 1.93
- O=C(NCC(F)(F)F)c1nnc(-c2cccnc2)s1: 1.53
- N#CCNC(=O)c1cnc(-c2cccnc2)s1: 0.88
- Cc1nc(-c2cccnc2)sc1C(=O)NC1(C(F)(F)F)CC1: 1.84

May I ask what chromatographic logP has been recorded for CCCC(NC(=O)c1sc(-c2cccnc2)nc1C)C(F)(F)F (centres unmarked) ?
2.58

May I ask what chromatographic logP has been recorded for Cc1nc(-c2cccnc2)sc1C(=O)NC(C)C1=NOCCO1 (centres unmarked) ?
1.27

May I ask what chromatographic logP has been recorded for Cc1nc(-c2cccnc2)sc1C(=O)NCC1OCC(CCl)O1 (centres unmarked) ?
1.51

May I ask what chromatographic logP has been recorded for Cc1nc(-c2cccnc2)sc1C(=O)NC1CCCC(C(F)(F)F)C1 (centres unmarked) ?
2.48

May I ask what chromatographic logP has been recorded for Cc1nc(-c2cccnc2)sc1C(=O)NCC(F)(F)C(F)(F)F ?
2.13

----------
Experiment: Determination of log P values by HPLC on reversed-phase column (formic acid method)
Type: physicochemical
Conditions: reversed-phase HPLC column (C 18), pH 3.4, HPLC, reversed-phase C 18, acidic range (pH 3.4), formic acid eluents, 55° C.; read-out: logP (HCOOH)
Procedure: 1) Description of Method for Determining the Log P Values (Formic Acid Method) The log P values reported in the table were determined according to EEC-Directive 79/831 Annex V.A8 by HPLC (High Performance Liquid Chromatography) on a reversed-phase column (C 18). […] Eluent A: acetonitrile+1 ml of formic acid/liter. Eluent B: water+0.9 ml of formic acid/liter. Gradient: from 10% eluent A/90% eluent B to 95% eluent A/5% eluent B in 4.25 min […]
Reported chromatographic logP is given for each of the following compounds.
A bare number is all that is needed in reply.

- Cn1nc(-c2cccnc2)cc1C(=O)NCc1ncccn1: 0.25
- CCN(C)C(=O)c1cnc(-c2cccnc2)s1: 1.23
- Cc1nc(-c2cccnc2)sc1C(=O)N(C)CC1CC1: 1.68

May I ask what chromatographic logP has been recorded for Cc1nc(-c2cccnc2)sc1C(=O)NN1CCCC1 ?
1.37

May I ask what chromatographic logP has been recorded for COC1(NC(=O)c2cnc(-c3cccnc3)s2)CC1 ?
1.14

May I ask what chromatographic logP has been recorded for Cc1nc(-c2cccnc2)sc1C(=O)NC1CCS(=O)(=O)C1 (centres unmarked) ?
1.22

May I ask what chromatographic logP has been recorded for Cc1cc(CNC(=O)c2sc(-c3cccnc3)nc2C)no1 ?
1.45

May I ask what chromatographic logP has been recorded for Cn1nc(-c2cncc(F)c2)cc1C(=O)NCC(C)(F)F ?
1.89

May I ask what chromatographic logP has been recorded for Cc1nc(-c2cccnc2)sc1C(=O)NCC(F)(Cl)Cl ?
1.98
